targetOfAssay: HLA-A*24:02 (human)
protocolNotes: UV peptide exchange; HLA class I ELISA
experimentalContext: remark: other sources report otherwise
quantityKind: exchange rate with Pos (%)
Answers are plain numbers, in %.

Worked examples, 5 binders total:
>>> print(df.to_string())
                                     binder  obsvalue
0  YQFTFDLLI (here or on the partner: biotinylated heavy chain) [P48 9-mer … (AR.p.H875Y)]       0.1
1  IPVLTRWPL (here or on the partner: biotinylated heavy chain) [P19 9-mer … (TMEM222-LOC644061 fusion)]       0.1
2  CYLGRQKRF (here or on the partner: biotinylated heavy chain) [P61 9-mer … (FOXA1.p.R261G)]      90.3
3  HVPKILSGK (here or on the partner: biotinylated heavy chain) [P58 9-mer … (AR Q903H)]       0.2
4  FLFLLLPLS (here or on the partner: biotinylated heavy chain) [P87 9-mer … (AR-Intron)]       0.2

Hi there! I need exchange rate with Pos for each item below, if you can.
1. RAKCKFSIL (here or on the partner: biotinylated heavy chain) [P56 9-mer … (SPOP F102C)]
2. CPMSRLRLA (here or on the partner: biotinylated heavy chain) [P46 9-mer … (TP53 R213D frameshift)]
3. YCMAAPMGL (here or on the partner: biotinylated heavy chain) [P76 9-mer … (AR-V3)]
4. IVWWCPMSR (here or on the partner: biotinylated heavy chain) [P98 9-mer … (TP53 R213D frameshift)]
5. RAVRRMNTF (here or on the partner: biotinylated heavy chain) [P17 9-mer … (MSMB-NOCA4 fusion)]
6. YLRRQKRLK (here or on the partner: biotinylated heavy chain) [P60 9-mer … (FOXA1.p.F266L)]

1. 0.5
2. -0.4
3. -0.5
4. -0.1
5. 0.1
6. 0.9

Source of measurements: patent US20230029453A1
